Target: T1, human LAG3 on recombinant CHO cells (human, UniProt P18627 23-525)
T1 construct: whole, on cells; also called Lag3 cells; recombinant CHO cells expressing Lag3
T1 sequence (looked up): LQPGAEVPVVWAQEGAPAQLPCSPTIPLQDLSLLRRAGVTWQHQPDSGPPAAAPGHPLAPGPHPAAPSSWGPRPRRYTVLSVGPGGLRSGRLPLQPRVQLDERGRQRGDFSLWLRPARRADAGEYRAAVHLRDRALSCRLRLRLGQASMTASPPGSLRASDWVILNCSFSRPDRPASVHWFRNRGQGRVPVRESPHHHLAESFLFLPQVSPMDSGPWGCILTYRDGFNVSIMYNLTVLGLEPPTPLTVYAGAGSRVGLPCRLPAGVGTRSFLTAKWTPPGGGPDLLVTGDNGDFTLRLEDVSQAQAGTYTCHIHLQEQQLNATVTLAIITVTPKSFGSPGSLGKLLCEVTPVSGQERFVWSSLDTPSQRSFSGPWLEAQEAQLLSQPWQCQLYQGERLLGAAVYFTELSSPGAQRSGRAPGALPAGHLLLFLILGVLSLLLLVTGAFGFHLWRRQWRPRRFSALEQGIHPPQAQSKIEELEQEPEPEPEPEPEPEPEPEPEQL
Experiment: cell ELISA on CHO cells expressing human LAG3;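 further: bivalent Fc-format binders titrated in threefold steps from 6 µg/mL, incubated with the cells 2 h at 4 °C, bound antibody detected by HRP-coupled anti-human IgG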
quantity measured: OD max (OD)
Give bare numbers, in OD.

Looking for the measured OD max of control antibody MDX25F7 (antibody, V domains shown) VH: QVQLQQWGAGLLKPSETLSLTCAVYGGSFSDYYWNWIRQPPGKGLEWIGEINHNGNTNSNPSLKSRVTLSLDTSKNQFSLKLRSVTAADTAVYYCAFGYSDYEYNWFDPWGQGTLVTVSS VL: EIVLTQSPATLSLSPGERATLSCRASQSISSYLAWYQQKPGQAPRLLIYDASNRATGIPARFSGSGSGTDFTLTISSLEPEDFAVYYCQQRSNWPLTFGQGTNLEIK , can you help?
2.06
